# credit: PubChem BioAssay (NCI)

Assay: NCI Yeast Anticancer Drug Screen. Data for the mec2-1 strain (AID 157)
Details: S. cerevisiae mec2-1 strain, at 50.0 µM
This is part of a sample that, as a whole, favours compounds with a hit. Of some 79,000 tested, about 15% had one in any assay. Calls of active or inactive are those of the source. Rule as the data show it: active = growth inhibition above about 70%; inactive = the rest.
Use one of these outcomes when replying: 1 (yes) = active, 0 (no) = inactive

**Query** Name the outcome recorded for O=C1/C(=C/N2CCN(c3ccccc3)CC2)Cc2c(Cl)cccc21 in the assay.
**Result** 1 (yes)

**Query** Assay result, entry O=C1C(=O)C2CC3(CC1N2Cc1ccccc1)OCCO3 — outcome?
**Result** 1 (yes)

**Query** Outcome logged for CC(=O)CC1CCC(=O)/C=C/C(=O)OC(CC(C)=O)CCC(=O)/C=C/C(=O)O1 (centres undefined) in this assay:
**Result** 0 (no)

**Query** Write down the call the test reported for this compound. Item: CC1(C)C=CC2=C(O1)C(=O)c1ccccc1C2=O
**Result** 0 (no)

**Query** Query: recorded result category for COC1=Nc2ccccc2S(=O)(=O)C=C1 in this test
**Result** 1 (yes)

***
**Query** Recorded test outcome, item OCC(O)C(O)C(/C=N/Nc1ccccc1)=N/Nc1ccccc1 (centres undefined)
**Result** 0 (no)

**Query** Please indicate how the test categorized O=c1cccccc1O.O=c1cccccc1O.O=c1cccccc1O.[Ru] .
**Result** 1 (yes)

**Query** Please share the test call associated with O=C(Nc1ccc(Br)cc1)c1c(-c2ccccc2)c2ccc(O)cc2oc1=O .
**Result** 1 (yes)

**Query** Returns: the outcome recorded for ClC1(Cl)c2ccccc2-c2ccccc21 in this assay.
**Result** 0 (no)

* * *

Test: NCI Yeast Anticancer Drug Screen. Data for the cln2 rad14 strain (AID 165);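 also: 0% = growth equal to vehicle treated cultures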
Settings: S. cerevisiae cln2 rad14 strain, at 50.0 µM (retest, dose inferred, filed as 5.0)
Experimental: Growth inhibition of yeast strains with defined genetic alterations is measured as a screen for potential anti-cancer activity. Selected strains with alterations in DNA damage repair or cell cycle control were exposed to compounds and growth inhibition was measured relative to vehicle treated controls. The strain used in this assay is cln2 rad14
The panel holds about 79,000 compounds, 15% with a hit somewhere; the sample as a whole holds those more often. Active and inactive are the calls of the source. Rule as the data show it: active = growth inhibition above about 70%; inactive = the rest.
Your answer must be one of the following: active, inactive

Solved entries:
**Query** Assay outcome for Cc1ccccc1NC(=S)Nc1ccccc1O : what was it?
**Result** inactive

**Query** What outcome does the record of this test show for CC(C)=CCC/C(C)=C/COc1ccc(/C=C2/C(=O)N(O)[C@@H](C)C(=O)N2O)cc1 ?
**Result** active

**Query** # fetch the recorded call for COC(=O)c1ccc(SCCC(=O)CCl)cc1 here
**Result** active

**Query** Hi, sorry to bother you, what did the test record for CCC(=O)C(C(=O)CC)c1c(OC(=O)c2ccccc2)ccc(O)c1C(=O)OC ?
**Result** inactive

**Query** Query: recorded result category for Cc1c(-c2ccccc2)ccnc1/C=N/NC(=S)Nc1ccccc1 in this test
**Result** inactive

Next:
**Query** // return assay outcome for CC(=O)Oc1ccc(/C=C/c2ccncc2)cc1
**Result** inactive

**Query** Outcome? O=C(O)c1ccc2cc3ccccc3cc2c1
**Result** inactive

**Query** // param item: O=C1CC2(CCN(CC3COc4ccccc4O3)CC2)C(=O)N1N1CCCCCC1 (configuration not stated) ; yields the recorded call
**Result** active
